Reference for the values: PubChem BioAssay (NCI)

# Tested on: SK-MEL-28 melanoma
# assayOverview: NCI-60 one-dose screen, 48 h
# conditions: 10 µM unless noted
# Method: Growth inhibition of the SK-MEL-28 human tumor cell line is measured as a screen for anti-cancer activity. Cells are grown in 96 well plates and exposed to the test compound for 48 hours. Compounds are tested at a single concentration, which is 10^-5 M for most compounds. The reported endpoint is percent growth (GI% or GIPRCNT), where numbers from 0 - 100% represent growth inhibition, and numbers from -100% - 0 represent cell death. For example, a value of 40 represents 60% growth inhibition. […]
Compounds without any hit were thinned out: in the full panel of roughly 83,000, 20% have a hit. Active and inactive are the calls of the source. Rule for the calls: active = growth percent below 10; inactive = the rest.
Possible outcomes: True = active, False = inactive

[[record]]
compoundstructure = "COc1ccc(C(=O)CCC(=O)O)cc1"
group = "False"

[[record]]
compoundstructure = "CC1(C)C(=O)/C(=C\\c2cccnc2)C[C@]2(C)[C@H]3CC[C@@H]4[C@H]5[C@H](C(=O)/C=C/c6cccnc6)CC[C@]5(C(=O)O)CC[C@@]4(C)[C@]3(C)CC[C@@H]12"
group = "True"

[[record]]
compoundstructure = "CN(C)c1ccc(N=Nc2ccc3ccccc3c2)cc1"
group = "False"

[[record]]
compoundstructure = "CC(C)CCSc1nc(N)nc2nc[nH]c12"
group = "False"

[[record]]
compoundstructure = "Cn1cc(-c2nnc(-c3cn(C)c4ncc(Br)cc34)s2)c2cc(Br)ccc21"
group = "False"

